measurementProtocol: Plasma concentration in CF1 mouse at 30 mg/kg, po after 4 hrs
Format: ADME, organism-based
Parameters: dose 30 mg/kg, route oral
metricName: concentration at 4 h (µM)

The following molecules have reported results that may help.
CC(C(=O)O)c1ccc(C(c2ccc(F)cc2)N2CC3CCCC3C2)c(-c2ccc(C(F)(F)F)cc2)c1 (stereo not given)
16.3
CC1CCN(C(c2ccc(C(F)(F)F)cc2)c2ccc(C(C)C(=O)O)cc2-c2ccc(C(F)(F)F)cc2)CC1 (stereo not given)
20.5
CC1CCN(C(c2ccc(F)cc2)c2ccc(C(C)(C)C(=O)O)cc2-c2ccc(C(F)(F)F)cc2)CC1 (stereo not given)
22.8

1: CC(C(=O)O)c1ccc(C(c2ccc(F)cc2)N2CCC(C(F)(F)F)CC2)c(-c2ccc(C(F)(F)F)cc2)c1 (stereo not given)
2: CC(C(=O)O)c1ccc(C(c2ccc(F)cc2)N2CCCC(C)(C)C2)c(-c2ccc(C(F)(F)F)cc2)c1 (stereo not given)
Query: Consider entries 1 and 2 . Which has the numerically lower concentration at 4 h? Let me know the label of the one you choose.
Reply: 2
(2: 5.3 µM, 1: 21.7 µM)

====

targetUnderTest: UniProt P11712
Sequence (P11712 whole entry): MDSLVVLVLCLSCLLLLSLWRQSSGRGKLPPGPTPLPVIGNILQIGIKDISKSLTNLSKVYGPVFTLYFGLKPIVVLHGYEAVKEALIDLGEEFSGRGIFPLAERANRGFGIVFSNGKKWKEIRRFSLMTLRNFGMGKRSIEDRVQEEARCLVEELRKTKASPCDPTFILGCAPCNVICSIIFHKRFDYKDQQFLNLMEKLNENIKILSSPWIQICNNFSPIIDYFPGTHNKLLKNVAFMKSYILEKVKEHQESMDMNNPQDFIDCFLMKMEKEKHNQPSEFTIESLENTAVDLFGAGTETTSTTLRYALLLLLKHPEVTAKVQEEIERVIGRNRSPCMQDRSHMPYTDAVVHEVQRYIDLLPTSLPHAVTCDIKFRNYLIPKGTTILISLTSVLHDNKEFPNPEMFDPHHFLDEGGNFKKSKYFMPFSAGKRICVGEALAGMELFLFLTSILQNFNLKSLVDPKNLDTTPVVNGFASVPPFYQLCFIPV
measurementProtocol: Inhibition of human CYP2C9
Format: ADME
pIC50: −log10 of the molar value.
metricName: pIC50

Query: Given the molecule CC1CCN([C@H](c2ccc(F)cc2)c2ccc([C@@H](C)C(=O)O)cc2-c2ccc(C(F)(F)F)cc2)CC1 , write its reported pIC50.
Reply: < 4.46

====

measurementProtocol: Tmax in cynomolgus monkey at 10 mg/kg, po
Type: ADME, organism-based, Macaca fascicularis
Design: dose 10 mg/kg, route oral
conditionInfo: in vivo
metricName: Tmax (h)
Provide the reading as a plain figure in h.

Query: Given the compound CC1CCN([C@H](c2ccc(F)cc2)c2ccc([C@@H](C)C(=O)O)cc2-c2ccc(C(F)(F)F)cc2)CC1.Cl , write its reported Tmax.
Reply: 2

====

measurementProtocol: Oral bioavailability in dog at 10 mg/kg
Format: ADME, organism-based, Canis lupus familiaris
conditionInfo: in vivo
metricName: bioavailability (%)
Provide the reading as a plain figure in %.

Query: Given the molecule CC1CCN([C@H](c2ccc(F)cc2)c2ccc([C@@H](C)C(=O)O)cc2-c2ccc(C(F)(F)F)cc2)CC1.Cl , write its reported bioavailability.
Reply: 44

====

measurementProtocol: Cmax in dog at 10 mg/kg, po
Assay type: ADME, organism-based, Canis lupus familiaris
Parameters: dose 10 mg/kg, route oral
conditionInfo: in vivo
metricName: Cmax (ng/mL)
Provide the reading as a plain figure in ng/mL.

Query: Given the molecule CC1CCN([C@H](c2ccc(F)cc2)c2ccc([C@@H](C)C(=O)O)cc2-c2ccc(C(F)(F)F)cc2)CC1.Cl , write its reported Cmax.
Reply: 1400

====

measurementProtocol: AUC (0 to 24 hrs) in rat at 10 mg/kg, po
Format: ADME, organism-based
Parameters: time < 24 hr, dose 10 mg/kg, route oral
conditionInfo: plasma
metricName: AUC(0-t) at 24 h (µg·h/mL)
Provide the reading as a plain figure in µg·h/mL.

Query: Given the compound CC1CCN([C@H](c2ccc(F)cc2)c2ccc([C@@H](C)C(=O)O)cc2-c2ccc(C(F)(F)F)cc2)CC1.Cl , write its reported AUC(0-t) at 24 h.
Reply: 49.7

====

measurementProtocol: Drug uptake in CF1 mouse brain at 30 mg/kg, po after 4 hrs
Assay type: ADME, organism-based
Set-up: dose 30 mg/kg, route oral
conditionInfo: read-out: Drug uptake
metricName: concentration at 4 h (µM)

CC(C(=O)O)c1ccc(C(c2ccc(F)cc2)N2CCCC(C)(C)C2)c(-c2ccc(C(F)(F)F)cc2)c1 (stereo not drawn)
2.5

P: CC(C(=O)O)c1ccc(C(c2ccc(F)cc2)N2CC3CCC(C3)C2)c(-c2ccc(C(F)(F)F)cc2)c1 (stereo not drawn)
Q: CC1CCN(C(c2ccc(F)c(F)c2)c2ccc(C(C)C(=O)O)cc2-c2ccc(C(F)(F)F)cc2)CC1 (stereo not drawn)
Query: // max by concentration at 4 h over [ P , Q ] Let me know the label of the one you choose.
Reply: Q
